Target: cyno MSLN (Macaca fascicularis)
Assay: BLI (Octet), bsAb in 1+1 Fab-scFv-Fc format
value type: Response
Simply state the number, no unit and no words.

binder	recorded result
XENP32554 (bispecific antibody, part only; not given: anti-CD3 scFv-Fc arm, constant regions, V domains shown, not shown: another chain or arm of the molecule; a dimerising Fc or GST) VH: QVQLVQSGAEVKKPGASVKVSCKASGYTFTSYWMHWVRQAPGQGLEWMGMIHPQSDNTIYYEKFQGRVTMTVDKSISTAYMELSRLRSDDTAVYYCAIIITPVVPKFDYWGQGTLVTVSS VL: DIVMTQSPDSLAVSLGERATINCKASHDVGTSVAWYQQKPGQSPKLLIYWASTRHTGVPDRFTGSGSGTDFTLTISSLQAEDVAVYFCQQYSSYPLTFGAGTKLEIK	1.03
XENP32560 (bispecific antibody, part only; not given: anti-CD3 scFv-Fc arm, constant regions, V domains shown, not shown: another chain or arm of the molecule; a dimerising Fc or GST; small tags and cut ends) VH: QVQLVQSGAEVKKPGASVKVSCKASGYTFTSYWMHWVRQAPGQGLEWMGMIHPNSDNTIYYEKFQGRVTMTVDKSISTAYMELSRLRSDDTAVYYCAIIITPVVPKFDYWGQGTLVTVSS VL: DIVMTQSPDSLAVSLGERATINCKASQDVGTSVAWYQQKPGQSPKLLIYWASTRHTGVPDRFTGSGSGTDFTLTISSLQAEDVAVYFCQQYSSYPLTFGAGTKLEIK	0.948

Consider the record given below.
The reported Response of the binder XENP32550 (bispecific antibody, part only; not given: anti-CD3 scFv-Fc arm, constant regions, V domains shown, not shown: another chain or arm of the molecule; a dimerising Fc or GST; small tags and cut ends) VH: QVQLVQSGAEVKKPGASVKVSCKASGYTFTGYWMHWVRQAPGQGLEWMGMIHPNSDNTIYYEKFQGRVTMTVDKSISTAYMELSRLRSDDTAVYYCAIIITPVVPKFDYWGQGTLVTVSS VL: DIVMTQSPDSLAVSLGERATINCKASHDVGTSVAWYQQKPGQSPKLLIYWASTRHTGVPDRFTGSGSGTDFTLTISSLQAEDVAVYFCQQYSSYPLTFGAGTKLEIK was 0.891
